targetUnderTest: APC11/APC2 (Homo sapiens, UniProt Q9NYG5+Q9UJX6)
Sequence (Q9NYG5 whole entry): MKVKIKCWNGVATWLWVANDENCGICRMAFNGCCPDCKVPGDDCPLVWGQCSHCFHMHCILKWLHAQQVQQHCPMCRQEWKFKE
Sequence (Q9UJX6 whole entry): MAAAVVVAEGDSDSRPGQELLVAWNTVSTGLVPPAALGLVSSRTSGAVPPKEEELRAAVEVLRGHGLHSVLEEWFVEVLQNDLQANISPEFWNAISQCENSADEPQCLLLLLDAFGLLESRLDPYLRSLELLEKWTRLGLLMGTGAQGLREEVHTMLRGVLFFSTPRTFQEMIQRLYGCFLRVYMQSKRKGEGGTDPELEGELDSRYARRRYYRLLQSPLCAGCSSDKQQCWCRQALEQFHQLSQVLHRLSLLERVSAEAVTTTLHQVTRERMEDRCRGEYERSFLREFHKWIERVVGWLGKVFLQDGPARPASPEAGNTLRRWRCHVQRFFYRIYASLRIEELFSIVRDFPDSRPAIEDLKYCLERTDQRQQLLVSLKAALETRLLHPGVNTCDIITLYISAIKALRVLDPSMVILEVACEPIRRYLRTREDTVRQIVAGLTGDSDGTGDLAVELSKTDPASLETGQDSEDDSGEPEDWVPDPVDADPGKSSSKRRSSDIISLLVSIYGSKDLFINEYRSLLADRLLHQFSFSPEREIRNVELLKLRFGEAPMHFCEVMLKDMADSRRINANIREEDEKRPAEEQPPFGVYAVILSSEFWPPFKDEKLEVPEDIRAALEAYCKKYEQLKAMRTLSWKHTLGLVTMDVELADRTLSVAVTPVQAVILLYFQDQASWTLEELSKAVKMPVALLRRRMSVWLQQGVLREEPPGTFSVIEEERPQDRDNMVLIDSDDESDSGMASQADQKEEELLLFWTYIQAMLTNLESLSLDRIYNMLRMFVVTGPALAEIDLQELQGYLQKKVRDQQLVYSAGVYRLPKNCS
runDescription: APC-11/APC-2 ligase assay (APC auto ubiquitination)
runParameters: APC assay
Measured IC50, listed per entry for reference.

# IC50 lookup, item `CC(=O)Nc1ccc(-c2ccc(C(C)(C)C)cc2)c2nonc12`
1 to 20 µM

* * *

targetUnderTest: APC11/APC2 (Homo sapiens, UniProt Q9NYG5+Q9UJX6)
runDescription: APC-11/APC-2 ligase assay (APC auto ubiquitination)
Type: biochemical
runParameters: APC assay
Description: For the assays described below, the TRAF6/Uev1A/UBC13 assay is the biochemical plate-based assay of TRAF6 ligase activity using Ubc13 as the E2 enzyme. […] E3 (His APC11/APC2— “APC”) auto ubiquitination was measured as described in U.S. patent application Ser. No. 09/826,312 (Publication No. U.S. 2002 0042083 A1), which is incorporated by reference in its entirety. […] Activity in the presence of the compound was determined relative to a parallel control in which only DMSO was added. […]
pIC50: −log10 of the molar value.
readoutName: pIC50

Some solved cases for reference:
• O=[N+]([O-])c1c(N2CCCCC2)cc(-c2cc(F)cc(F)c2)c2nonc12 [compound 428] = ≤ 4.70
• O=S(=O)(NCc1ccncc1)c1ccc(Cl)c2nonc12 [compound 455] = ≤ 4.70
• O=[N+]([O-])c1ccc(Sc2nc3ccccc3s2)c2nonc12 [compound 158] = 4.70 to 6.00
• CC(C)(C)c1ccc(-c2cc(N3CCCCC3)c([N+](=O)[O-])c3nonc23)cc1 [compound 433] = ≤ 4.70

From here, focus on the item given below.
For O=S(=O)(Nc1cc(Cl)ccc1Cl)c1ccc(Cl)c2nonc12 [compound 365] , what is its reported pIC50?
≤ 4.70
